Ref: patent US4912104A

System: Carrageenin edema
procedure.summary: Antiinflammatory action (Carrageenin edema method)
Assay type: in vivo, Jcl: SD rats
condition.info: Rattus norvegicus; 50 mg/kg oral, one hour before carrageenin; paw volume 3 hours later; rats; read-out: Inhibition rate, Carrageenin edema
outcome.measure: inhibition in vivo at 50 mg/kg (%)
Kindly answer with a numeric value in %, unit omitted.

Known inhibition in vivo at 50 mg/kg results, listed for orientation:
CCCCn1c(=O)n(CCC)c(=O)c2c3n(nc21)CCN3C	70
CCCn1c(=O)c2c3n(nc2n(CCC)c1=O)CCN3	97
CCn1c(=O)c2c3n(nc2n(CC)c1=O)CCN3	99

Field: next compound
Prompt: Recorded inhibition in vivo at 50 mg/kg for "CCCn1c(=O)c2c(nn3cc[nH]c23)n(CCC)c1=O" , please?
Response: 90
